These measurements were taken from patent US4698352A.

test system: Ps. aeruginosa S-68; test: Antibacterial activity (MIC), agar dilution; format: cell-based; settings: Pseudomonas aeruginosa, S68, 20 h
Parameter: MIC. Scope: all listed entries.
OUTCOME_MEASURE: MIC (mg/L)

COCOC(=O)c1cn(-c2ccc(O)cc2)c(-c2ccc(N(C)C)cc2)cc1=O; 3.13
O=C(O)c1cn(-c2ccc(O)cc2)c(-c2ccc3ccsc3c2)cc1=O; 1.56
O=C(O)c1cn(-c2ccc(O)cc2)c(-c2ccc3ccccc3c2)cc1=O; 1.56
CN(C)c1ccc(-c2cc(=O)c(C(=O)O)cn2-c2ccc(F)cc2)cc1; 12.5
Cc1nc(-c2ccc(-c3cc(=O)c(C(=O)O)cn3-c3ccc(F)cc3)cc2)co1; 12.5
Cc1cc(O)ccc1-n1cc(C(=O)O)c(=O)cc1C1=CCCC1; 6.25
CC(=O)Oc1ccc(-n2cc(C(=O)O)c(=O)cc2-c2ccc(N(C)C)cc2)cc1; 3.13
CC(=O)Oc1ccc(-n2cc(C(=O)O)c(=O)cc2-c2ccc(-c3cccs3)cc2)cc1; 1.56
Cc1cc(O)ccc1-n1cc(C(=O)O)c(=O)cc1CCc1ccccc1; 12.5
O=C(O)c1cn(-c2ccc(O)cc2)c(-c2ccc(-c3ccccc3)s2)cc1=O; 3.13
O=C(O)c1cn(-c2ccc(O)cc2)c(-c2ccc(-c3ccccc3)cc2)cc1=O; 12.5
CC(=O)Oc1ccc(-n2cc(C(=O)OCCN(C)C)c(=O)cc2-c2ccc(N(C)C)cc2)cc1 [drawing 37]; 6.25
O=C(O)c1cn(-c2ccc(F)cc2)c(-c2cc3ccccc3s2)cc1=O; 6.25
CC=Cc1cc(=O)c(C(=O)O)cn1-c1ccc(O)cc1C; 12.5
O=C(O)c1cn(-c2ccc(O)cc2)c(-c2ccc(-c3ccc(O)cc3)s2)cc1=O; 6.25
O=C(O)c1cn(-c2ccc(O)cc2)c(-c2ccc3cccnc3c2)cc1=O; 12.5
O=C(O)c1cn(-c2ccc(O)cc2)c(-c2ccc(N3CCCC3)cc2)cc1=O; 3.13
